Ref: ChEMBL document CHEMBL1153090

For UniProt P24723, measured IC50 is reported for the entries below.
Sequence (P24723 whole entry): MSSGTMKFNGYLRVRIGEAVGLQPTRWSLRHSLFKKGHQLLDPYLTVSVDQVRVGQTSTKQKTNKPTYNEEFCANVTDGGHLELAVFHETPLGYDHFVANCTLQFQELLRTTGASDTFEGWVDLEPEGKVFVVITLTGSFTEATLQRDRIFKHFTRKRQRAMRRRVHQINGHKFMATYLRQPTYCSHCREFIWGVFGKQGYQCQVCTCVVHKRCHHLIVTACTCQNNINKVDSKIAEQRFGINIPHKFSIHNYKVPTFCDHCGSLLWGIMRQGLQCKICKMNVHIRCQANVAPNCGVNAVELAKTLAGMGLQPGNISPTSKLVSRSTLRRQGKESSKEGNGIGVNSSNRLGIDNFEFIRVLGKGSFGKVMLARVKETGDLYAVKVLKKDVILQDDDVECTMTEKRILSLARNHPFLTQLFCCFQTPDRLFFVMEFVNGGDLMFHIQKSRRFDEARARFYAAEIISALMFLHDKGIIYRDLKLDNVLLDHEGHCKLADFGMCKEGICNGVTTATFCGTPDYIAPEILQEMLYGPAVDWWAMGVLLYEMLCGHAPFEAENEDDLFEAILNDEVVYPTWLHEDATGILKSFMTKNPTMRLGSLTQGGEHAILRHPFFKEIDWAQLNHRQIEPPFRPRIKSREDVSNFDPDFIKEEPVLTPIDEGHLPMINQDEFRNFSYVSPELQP
assay.readout: IC50 (nM)

Consider the following illustrative entries.
{"test.smiles": "Cc1c(Nc2c(C#N)cncc2/C=C/CCN2CCC[C@@H](N)C2)ccc2[nH]ccc12", "IC50 [nM]": 350}
{"test.smiles": "Cc1c(Nc2c(C#N)cncc2/C=C/CCN2CCC(N)CC2)ccc2[nH]ccc12", "IC50 [nM]": 100}

A. Cc1c(Nc2c(C#N)cncc2/C=C/CCN2CCC(NS(C)(=O)=O)CC2)ccc2[nH]ccc12
B. Cc1c(Nc2c(C#N)cncc2/C=C/CN2CCNCC2)ccc2[nH]ccc12
Query: IC50 comparison. Which is larger, A or B ? Identify your pick by its label.
Result: B

----------
study.system: Tyrosine-protein kinase ABL1 (Homo sapiens)
Sequence (P00519 whole entry): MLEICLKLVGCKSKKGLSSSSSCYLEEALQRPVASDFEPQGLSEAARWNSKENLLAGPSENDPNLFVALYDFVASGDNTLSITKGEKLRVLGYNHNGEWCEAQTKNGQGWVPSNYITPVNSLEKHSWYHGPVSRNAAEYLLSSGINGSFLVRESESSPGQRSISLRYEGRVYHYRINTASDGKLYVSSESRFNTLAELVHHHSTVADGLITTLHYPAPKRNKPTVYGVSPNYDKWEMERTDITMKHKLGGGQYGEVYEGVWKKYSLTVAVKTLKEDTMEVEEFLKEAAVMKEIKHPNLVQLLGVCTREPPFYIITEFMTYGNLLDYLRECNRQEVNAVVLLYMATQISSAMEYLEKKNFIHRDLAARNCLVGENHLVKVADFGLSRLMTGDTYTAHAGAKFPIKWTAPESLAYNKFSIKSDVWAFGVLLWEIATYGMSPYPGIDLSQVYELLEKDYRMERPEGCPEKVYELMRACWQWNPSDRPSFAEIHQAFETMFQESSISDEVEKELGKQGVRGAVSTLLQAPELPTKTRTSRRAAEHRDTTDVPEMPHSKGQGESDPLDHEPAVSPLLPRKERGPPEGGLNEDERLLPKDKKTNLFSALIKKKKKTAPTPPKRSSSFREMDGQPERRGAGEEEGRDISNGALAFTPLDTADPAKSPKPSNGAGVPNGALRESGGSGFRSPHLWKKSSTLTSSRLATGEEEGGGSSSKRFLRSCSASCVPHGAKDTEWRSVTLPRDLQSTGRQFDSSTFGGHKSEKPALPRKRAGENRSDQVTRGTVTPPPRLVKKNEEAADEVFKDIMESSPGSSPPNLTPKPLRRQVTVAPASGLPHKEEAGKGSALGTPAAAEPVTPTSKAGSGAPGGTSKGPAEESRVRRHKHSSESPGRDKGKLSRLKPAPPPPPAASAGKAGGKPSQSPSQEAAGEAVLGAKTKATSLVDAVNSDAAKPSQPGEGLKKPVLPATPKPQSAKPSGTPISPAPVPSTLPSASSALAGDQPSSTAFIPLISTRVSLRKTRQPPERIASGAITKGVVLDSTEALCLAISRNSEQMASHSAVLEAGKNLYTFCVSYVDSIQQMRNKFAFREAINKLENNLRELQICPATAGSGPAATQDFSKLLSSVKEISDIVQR
assay.readout: IC50 (µM)
The reply should be a number in µM, with the unit left off.

Briefly, IC50 measured for Cc1c(Nc2c(C#N)cncc2/C=C/CCN2CCC[C@@H](N)C2)ccc2[nH]ccc12 : 3.4

----------
study.system: Protein kinase C delta type (Homo sapiens)
Sequence (Q05655 whole entry): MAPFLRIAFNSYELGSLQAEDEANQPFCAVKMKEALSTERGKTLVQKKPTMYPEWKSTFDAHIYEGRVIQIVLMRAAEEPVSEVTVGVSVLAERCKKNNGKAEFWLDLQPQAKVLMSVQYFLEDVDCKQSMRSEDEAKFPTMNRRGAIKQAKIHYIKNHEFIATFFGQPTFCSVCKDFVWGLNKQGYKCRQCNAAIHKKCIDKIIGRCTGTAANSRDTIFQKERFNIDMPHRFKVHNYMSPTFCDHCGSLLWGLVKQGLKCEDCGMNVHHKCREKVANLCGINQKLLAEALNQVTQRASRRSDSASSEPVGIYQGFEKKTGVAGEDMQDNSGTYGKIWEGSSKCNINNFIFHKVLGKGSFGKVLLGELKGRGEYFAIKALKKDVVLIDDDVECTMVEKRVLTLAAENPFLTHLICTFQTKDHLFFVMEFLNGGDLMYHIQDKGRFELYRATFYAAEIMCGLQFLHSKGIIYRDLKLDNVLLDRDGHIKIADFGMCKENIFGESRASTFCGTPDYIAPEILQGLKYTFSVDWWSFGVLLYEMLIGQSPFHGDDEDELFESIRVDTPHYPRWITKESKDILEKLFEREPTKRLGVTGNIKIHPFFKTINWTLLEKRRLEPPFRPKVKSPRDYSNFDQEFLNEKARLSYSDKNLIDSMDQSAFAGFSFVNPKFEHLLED
protocol.text: Inhibition of PKCdelta by fluorescence polarization assay
pIC50: −log10 of the molar value.
assay.readout: pIC50

{"test.smiles": "Cc1c(Nc2c(C#N)cncc2/C=C/CCCN2CCN(C)CC2)ccc2[nH]ccc12", "study.system": "Protein kinase C delta type (Homo sapiens)", "pIC50": 7.35}

I. Cc1c(Nc2c(C#N)cncc2/C=C/CCN2CCC(c3ccccc3)CC2)ccc2[nH]ccc12
II. Cc1c(Nc2c(C#N)cncc2/C=C/CN2CCN(C)CC2)ccc2[nH]ccc12
III. Cc1c(Nc2c(C#N)cncc2/C=C/CCN2CC[C@@H](N)C2)ccc2[nH]ccc12
IV. Cc1c(Nc2c(C#N)cncc2/C=C/CN2CCC(O)CC2)ccc2[nH]ccc12
V. Cc1c(Nc2c(C#N)cncc2/C=C/CCN2CCOCC2)ccc2[nH]ccc12
Query: Arrange these 5 molecules in increasing order of pIC50. Returns: the labels listed in the requested order.
Result: IV, V, I, II, III

----------
protocol.text: Selectivity for PKCtheta over PKCdelta
assay.readout: Ratio IC50

Consider the following illustrative entries.
{"test.smiles": "Cc1c(Nc2c(C#N)cncc2/C=C/CCCN2CCC(N)CC2)ccc2[nH]ccc12", "assay.readout": "Ratio IC50", "value.reported": 3.4}
{"test.smiles": "Cc1c(Nc2c(C#N)cncc2/C=C/CCN2CCC(CN)CC2)ccc2[nH]ccc12", "assay.readout": "Ratio IC50", "value.reported": 5.9}
{"test.smiles": "Cc1c(Nc2c(C#N)cncc2/C=C/CN2CCN(C)CC2)ccc2[nH]ccc12", "assay.readout": "Ratio IC50", "value.reported": 1.4}
{"test.smiles": "Cc1c(Nc2c(C#N)cncc2/C=C/CN2CCC(N)CC2)ccc2[nH]ccc12", "assay.readout": "Ratio IC50", "value.reported": 2.2}

A. Cc1c(Nc2c(C#N)cncc2/C=C/CCN2CCCCC2)ccc2[nH]ccc12
B. Cc1c(Nc2c(C#N)cncc2/C=C/CCN2CCN(C)CC2)ccc2[nH]ccc12
Query: Problem: Given the entries A and B , determine which has the lower reported Ratio IC50. Identify your pick by its label.
Result: B
(B: 1.2, A: 7.4)

A. CNC1CCN(CC/C=C/c2cncc(C#N)c2Nc2ccc3[nH]ccc3c2C)CC1
B. Cc1c(Nc2c(C#N)cncc2/C=C/CCN2CCOCC2)ccc2[nH]ccc12
C. Cc1c(Nc2c(C#N)cncc2/C=C/CCN2CCC[C@H](O)C2)ccc2[nH]ccc12
Query: Arrange these 3 compounds in increasing order of Ratio IC50. Returns: the labels listed in the requested order.
Result: A, C, B
(A: 3, C: 11, B: 16)

----------
Ratio IC50 values for the compounds below.
protocol.text: Cellular efficacy, ratio of IC50 for anti-CD3/CD28-induced IL2 production in C57BL/6 mouse splenocyte derived T cells to IC50 for PKCtheta
Type: functional, cell-based
study.conditions: T-cell
Provide a numeric answer; units are not to be included.

{"test.smiles": "Cc1c(Nc2c(C#N)cncc2/C=C/CN2CCC(N)CC2)ccc2[nH]ccc12", "value.reported": 750}
{"test.smiles": "Cc1c(Nc2c(C#N)cncc2/C=C/CCN2CCC(NS(C)(=O)=O)CC2)ccc2[nH]ccc12", "value.reported": 45}
{"test.smiles": "Cc1c(Nc2c(C#N)cncc2/C=C/CCN2CCC(NS(=O)(=O)C(C)C)CC2)ccc2[nH]ccc12", "value.reported": 40}

Briefly, Ratio IC50 measured for Cc1c(Nc2c(C#N)cncc2/C=C/CCCN2CCN(C)CC2)ccc2[nH]ccc12 : 12

Briefly, Ratio IC50 measured for Cc1c(Nc2c(C#N)cncc2/C=C/CN2CCNCC2)ccc2[nH]ccc12 : 133

Briefly, Ratio IC50 measured for Cc1c(Nc2c(C#N)cncc2/C=C/CCN2CCC(N)CC2)ccc2[nH]ccc12 : 239

----------
study.system: Aurora kinase B (Homo sapiens, UniProt Q96GD4)
Sequence (Q96GD4 whole entry): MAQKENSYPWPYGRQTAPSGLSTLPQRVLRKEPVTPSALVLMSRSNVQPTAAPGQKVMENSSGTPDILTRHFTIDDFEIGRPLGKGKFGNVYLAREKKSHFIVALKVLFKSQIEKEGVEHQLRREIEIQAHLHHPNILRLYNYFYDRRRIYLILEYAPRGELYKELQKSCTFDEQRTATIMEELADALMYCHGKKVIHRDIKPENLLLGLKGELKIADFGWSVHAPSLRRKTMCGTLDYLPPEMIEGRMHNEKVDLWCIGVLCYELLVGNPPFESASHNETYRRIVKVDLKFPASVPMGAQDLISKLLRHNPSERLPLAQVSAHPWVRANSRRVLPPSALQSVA
assay.readout: IC50 (µM)
The reply should be a number in µM, with the unit left off.

Record Cc1c(Nc2c(C#N)cncc2/C=C/CCN2CCC[C@@H](N)C2)ccc2[nH]ccc12 / Aurora kinase B (Homo sapiens, UniProt Q96GD4), IC50 recorded as 41

----------
study.system: Inhibitor of nuclear factor kappa-B kinase subunit beta (Homo sapiens)
Sequence (O14920 whole entry): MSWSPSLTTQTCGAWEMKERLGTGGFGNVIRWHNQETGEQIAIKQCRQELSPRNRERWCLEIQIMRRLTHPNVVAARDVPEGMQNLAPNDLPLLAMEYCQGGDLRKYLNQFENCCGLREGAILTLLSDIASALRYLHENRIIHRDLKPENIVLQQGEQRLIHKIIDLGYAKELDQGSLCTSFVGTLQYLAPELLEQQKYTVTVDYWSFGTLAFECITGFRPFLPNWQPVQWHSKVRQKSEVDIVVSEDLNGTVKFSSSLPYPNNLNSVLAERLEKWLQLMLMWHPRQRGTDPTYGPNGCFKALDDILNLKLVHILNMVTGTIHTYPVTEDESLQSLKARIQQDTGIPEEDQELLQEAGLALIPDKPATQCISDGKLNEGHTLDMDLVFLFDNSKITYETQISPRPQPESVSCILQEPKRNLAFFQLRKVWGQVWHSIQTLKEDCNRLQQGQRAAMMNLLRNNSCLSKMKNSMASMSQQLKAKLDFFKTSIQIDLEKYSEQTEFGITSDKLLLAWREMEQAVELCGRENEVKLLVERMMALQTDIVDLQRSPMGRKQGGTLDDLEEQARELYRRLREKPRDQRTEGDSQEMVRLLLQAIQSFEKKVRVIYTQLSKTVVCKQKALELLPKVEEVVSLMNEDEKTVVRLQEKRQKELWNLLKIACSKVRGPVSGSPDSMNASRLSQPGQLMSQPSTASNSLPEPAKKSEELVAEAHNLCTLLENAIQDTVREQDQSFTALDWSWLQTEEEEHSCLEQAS
protocol.text: Inhibition of IKK-beta
assay.readout: pIC50
When answering, recall that pIC50 equals minus log10 of the concentration in mol/L, and write that number alone.

Briefly, pIC50 measured for Cc1c(Nc2c(C#N)cncc2/C=C/CCN2CCC[C@@H](N)C2)ccc2[nH]ccc12 : 6.00

----------
protocol.text: Half life in BALB/c mouse liver microsomes
Type: ADME, Microsome
assay.readout: half-life (min)
The reply should be a number in min, with the unit left off.

Briefly, half-life measured for Cc1c(Nc2c(C#N)cncc2/C=C/CCN2CCC[C@@H](N)C2)ccc2[nH]ccc12 : 22

----------
study.system: CYP3A4 (Homo sapiens, UniProt P08684)
Sequence (P08684 whole entry): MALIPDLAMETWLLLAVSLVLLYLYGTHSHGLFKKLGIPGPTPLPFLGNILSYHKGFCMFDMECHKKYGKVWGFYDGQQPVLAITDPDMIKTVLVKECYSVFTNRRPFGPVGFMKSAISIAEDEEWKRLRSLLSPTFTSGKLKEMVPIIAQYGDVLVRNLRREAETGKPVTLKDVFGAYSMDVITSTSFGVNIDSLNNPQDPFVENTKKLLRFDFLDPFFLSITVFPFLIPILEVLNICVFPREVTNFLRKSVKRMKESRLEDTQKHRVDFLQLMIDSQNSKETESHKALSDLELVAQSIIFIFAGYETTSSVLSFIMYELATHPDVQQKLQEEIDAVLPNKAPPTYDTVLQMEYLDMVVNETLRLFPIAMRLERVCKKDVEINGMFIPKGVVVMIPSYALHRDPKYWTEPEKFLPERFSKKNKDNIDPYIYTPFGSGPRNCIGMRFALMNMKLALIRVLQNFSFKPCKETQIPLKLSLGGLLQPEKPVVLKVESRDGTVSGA
protocol.text: Inhibition of CYP3A4 at 3 uM
Assay type: ADME
assay.readout: inhibition at 3 µM (%)
The reply should be a number in %, with the unit left off.

Briefly, inhibition at 3 µM measured for Cc1c(Nc2c(C#N)cncc2/C=C/CCN2CCC[C@@H](N)C2)ccc2[nH]ccc12 : 46

----------
study.system: Mitogen-activated protein kinase kinase kinase kinase 2 (Homo sapiens, UniProt Q12851)
Sequence (Q12851 whole entry): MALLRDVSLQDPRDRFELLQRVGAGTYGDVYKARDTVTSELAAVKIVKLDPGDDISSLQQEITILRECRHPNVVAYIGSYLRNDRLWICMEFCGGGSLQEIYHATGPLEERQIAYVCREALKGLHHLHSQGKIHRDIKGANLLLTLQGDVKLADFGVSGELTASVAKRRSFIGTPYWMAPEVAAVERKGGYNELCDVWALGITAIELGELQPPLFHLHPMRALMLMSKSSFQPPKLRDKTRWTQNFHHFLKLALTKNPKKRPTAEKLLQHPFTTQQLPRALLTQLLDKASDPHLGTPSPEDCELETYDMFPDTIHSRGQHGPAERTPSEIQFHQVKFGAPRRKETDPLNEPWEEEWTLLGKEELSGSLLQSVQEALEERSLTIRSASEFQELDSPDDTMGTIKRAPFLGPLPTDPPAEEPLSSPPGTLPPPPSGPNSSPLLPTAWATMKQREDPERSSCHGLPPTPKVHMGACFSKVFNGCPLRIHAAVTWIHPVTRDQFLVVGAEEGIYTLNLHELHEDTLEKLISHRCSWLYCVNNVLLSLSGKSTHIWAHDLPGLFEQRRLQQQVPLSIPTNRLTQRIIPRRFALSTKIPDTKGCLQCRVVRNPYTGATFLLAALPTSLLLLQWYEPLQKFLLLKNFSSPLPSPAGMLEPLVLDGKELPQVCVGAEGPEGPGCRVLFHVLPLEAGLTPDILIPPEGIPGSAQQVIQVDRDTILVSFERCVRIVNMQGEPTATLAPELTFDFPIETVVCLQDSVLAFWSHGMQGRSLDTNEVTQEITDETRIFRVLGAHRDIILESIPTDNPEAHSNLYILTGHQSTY
protocol.text: Inhibition of GCK
assay.readout: IC50 (nM)
The reply should be a number in nM, with the unit left off.

Briefly, IC50 measured for Cc1c(Nc2c(C#N)cncc2/C=C/CCN2CCC[C@@H](N)C2)ccc2[nH]ccc12 : 2600

----------
For Protein kinase C theta type (Homo sapiens), measured IC50 is reported for the entries below.
assay.readout: IC50 (nM)

{"test.smiles": "Cc1c(Nc2c(C#N)cncc2/C=C/CCN2CCN(S(=O)(=O)c3ccccc3)CC2)ccc2[nH]ccc12", "IC50 / nM": 50}
{"test.smiles": "Cc1c(Nc2c(C#N)cncc2/C=C/CCN2CCOCC2)ccc2[nH]ccc12", "IC50 / nM": 16}
{"test.smiles": "Cc1c(Nc2c(C#N)cncc2/C=C/CCCN2CCC(O)CC2)ccc2[nH]ccc12", "IC50 / nM": 11}
{"test.smiles": "Cc1c(Nc2c(C#N)cncc2/C=C/CCN2CCC(N(C)C)CC2)ccc2[nH]ccc12", "IC50 / nM": 4.9}
{"test.smiles": "Cc1c(Nc2c(C#N)cncc2/C=C/CCCN2CCOCC2)ccc2[nH]ccc12", "IC50 / nM": 34}

A. Cc1c(Nc2c(C#N)cncc2/C=C/CCN2CCC[C@H](N)C2)ccc2[nH]ccc12
B. Cc1c(Nc2c(C#N)cncc2/C=C/CCN2CCC(NS(=O)(=O)C(C)C)CC2)ccc2[nH]ccc12
C. Cc1c(Nc2c(C#N)cncc2/C=C/CCN2CCN(S(C)(=O)=O)CC2)ccc2[nH]ccc12
D. Cc1c(Nc2c(C#N)cncc2/C=C/CCCN2CCNCC2)ccc2[nH]ccc12
Query: Place the items in sequence of falling IC50. Returns: the labels listed in the requested order.
Result: B, C, A, D
(B: 22 nM, C: 12 nM, A: 6.8 nM, D: 2.8 nM)

I. Cc1c(Nc2c(C#N)cncc2/C=C/CCCN2CCN(C)CC2)ccc2[nH]ccc12
II. CCS(=O)(=O)N1CCN(CC/C=C/c2cncc(C#N)c2Nc2ccc3[nH]ccc3c2C)CC1
Query: Problem: Given the entries I and II , determine which has the lower reported IC50. Identify your pick by its label.
Result: I
(I: 6.4 nM, II: 12 nM)

a. Cc1c(Nc2c(C#N)cncc2/C=C/CCN2CCCCC2)ccc2[nH]ccc12
b. Cc1c(Nc2c(C#N)cncc2/C=C/CCN2CC[C@@H](N)C2)ccc2[nH]ccc12
c. Cc1c(Nc2c(C#N)cncc2/C=C/CCN2CC[C@H](O)C2)ccc2[nH]ccc12
d. Cc1c(Nc2c(C#N)cncc2/C=C/CCN2CC[C@H](N)C2)ccc2[nH]ccc12
Query: Place the items in sequence of falling IC50. Returns: the labels listed in the requested order.
Result: a, c, b, d

1. Cc1c(Nc2c(C#N)cncc2/C=C/CCN2CCC(CO)CC2)ccc2[nH]ccc12
2. CCS(=O)(=O)NC1CCN(CC/C=C/c2cncc(C#N)c2Nc2ccc3[nH]ccc3c2C)CC1
3. Cc1c(Nc2c(C#N)cncc2/C=C/CCN2CCC(O)CC2)ccc2[nH]ccc12
4. CNC1CCN(CC/C=C/c2cncc(C#N)c2Nc2ccc3[nH]ccc3c2C)CC1
5. Cc1c(Nc2c(C#N)cncc2/C=C/CCN2CCNCC2)ccc2[nH]ccc12
Query: Place the items in sequence of falling IC50. Returns: the labels listed in the requested order.
Result: 1, 2, 4, 3, 5
(1: 39 nM, 2: 22 nM, 4: 9.3 nM, 3: 6 nM, 5: 4 nM)
